target.desc: IDH1 wt/IDH1 R132H heterodimer (Homo sapiens (Human), UniProt O75874, R132H)
Sequence (O75874 whole entry R132H): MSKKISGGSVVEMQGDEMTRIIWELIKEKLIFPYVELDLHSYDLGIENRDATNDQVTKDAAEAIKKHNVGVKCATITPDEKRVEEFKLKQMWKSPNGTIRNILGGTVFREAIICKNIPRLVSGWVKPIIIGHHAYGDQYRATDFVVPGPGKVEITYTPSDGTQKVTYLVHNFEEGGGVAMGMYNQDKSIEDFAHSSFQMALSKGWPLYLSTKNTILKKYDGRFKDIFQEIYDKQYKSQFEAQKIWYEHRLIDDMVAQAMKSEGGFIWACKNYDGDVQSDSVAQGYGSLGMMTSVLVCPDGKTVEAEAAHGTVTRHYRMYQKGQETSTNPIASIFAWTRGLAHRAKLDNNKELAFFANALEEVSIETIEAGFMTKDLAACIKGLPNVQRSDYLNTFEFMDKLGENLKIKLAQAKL
Sequence (O75874 whole entry, stated change not applied): as the sequence (O75874 whole entry R132H) above, with H132R counted along it
protocol.text: In vitro assay for IDH1m R132H inhibitors, IDH1 wt/IDH1 R132H heterodimer, NADPH depletion (diaphorase/resazurin)
Format: biochemical
applied.conditions: IDH1 wt/IDH1 R132H heterodimer, 300 μM NADP (saturated); read-out: IDH1 wt/R132H NADPH/NADP IC50 saturated
pIC50: −log10 of the molar value.
Recorded measurements of pIC50, one per entry

Past entries and their recorded results:
> print(dat)
                                   molecule                               target.desc        result
1  FC(F)(F)c1cc(Nc2nc(NCC3CC3)nc(-c3nc(C(F)(F)F)cs3)n2)ccn1  IDH1 wt/IDH1 R132H heterodimer (Homo sapiens (Human), UniProt O75874, R132H)  7.00 to 7.30
2  C[C@@H](Nc1nc(N[C@H](C)C(F)(F)F)nc(-c2cncc(C(F)(F)F)n2)n1)C(F)(F)F  IDH1 wt/IDH1 R132H heterodimer (Homo sapiens (Human), UniProt O75874, R132H)        > 7.30
3  FC1(F)CCC(Nc2nc(Nc3ccnc(C(F)(F)F)c3)nc(-c3cncc(C(F)(F)F)n3)n2)CC1  IDH1 wt/IDH1 R132H heterodimer (Homo sapiens (Human), UniProt O75874, R132H)        > 7.30
4  C[C@@H](Nc1nc(Nc2ccnc(-c3ccc(Cl)cc3)c2)nc(-c2cccc(C(F)(F)F)n2)n1)C(F)(F)F  IDH1 wt/IDH1 R132H heterodimer (Homo sapiens (Human), UniProt O75874, R132H)  7.00 to 7.30
5  Fc1cc(F)cc(Nc2nc(NC3CCC(F)(F)CC3)nc(-c3cncc(C(F)(F)F)n3)n2)c1  IDH1 wt/IDH1 R132H heterodimer (Homo sapiens (Human), UniProt O75874, R132H)        > 7.30
6  C[C@H](Nc1nc(Nc2ccnc(C3(C#N)CC3)c2)nc(-c2cncc(C(F)F)n2)n1)C(F)(F)F  IDH1 wt/IDH1 R132H heterodimer (Homo sapiens (Human), UniProt O75874, R132H)        > 7.30
7  C[C@H](Nc1nc(Nc2ccnc(C3(C#N)CC3)c2)nc(-n2ccc(C(F)(F)F)n2)n1)C(F)(F)F  IDH1 wt/IDH1 R132H heterodimer (Homo sapiens (Human), UniProt O75874, R132H)        > 7.30
8  FC1(F)CCC(Nc2nc(NC3CCC(F)(F)C3)nc(-c3cccc(C(F)(F)F)n3)n2)CC1 (stereo not drawn)  IDH1 wt/IDH1 R132H heterodimer (Homo sapiens (Human), UniProt O75874, R132H)        > 7.30

Looking up `Fc1cc(F)cc(Nc2nc(N[C@H]3CCC(F)(F)C3)nc(-c3cncc(C(F)(F)F)n3)n2)c1` , I found its pIC50 recorded as > 7.30

The molecule `FC1(F)CC2(CC(Nc3nc(Nc4ccnc(C(F)(F)F)c4)nc(-c4cncc(C(F)(F)F)n4)n3)C2)C1` showed pIC50 equal to 6.00 to 7.00

Item: `N#CC1(c2cc(Nc3nc(N[C@@H]4CCC(F)(F)C4)nc(-c4nccc(C(F)(F)F)n4)n3)ccn2)CC1` | pIC50: 6.00 to 7.00

Measured pIC50, `CC[C@H](Nc1nc(N[C@@H](CC)C(F)(F)F)nc(-c2ccnc(C(F)(F)F)n2)n1)C(F)(F)F` : > 7.30

* * *

Tested on: U87MG pLVX-IDH2 R140Q-neo cells
protocol.text: U87MG pLVX-IDH2 R140Q-neo cell based assay, 2-HG by LC-MS
applied.conditions: Homo sapiens, U-87 MG
pIC50: −log10 of the molar value.
measured.attribute: pIC50

Would you please look over these solved cases?
> print(dat)
                         compound.structure  measured.attribute        result
1  C[C@H](Nc1nc(Nc2ccnc(C3(C#N)CC3)c2)nc(-c2cccc(C(F)(F)F)n2)n1)C(F)(F)F               pIC50        > 7.30
2  FC(F)c1csc(-c2nc(NC3CC(F)(F)C3)nc(NC3CC(F)(F)C3)n2)n1               pIC50        > 7.30
3  CC(C)(O)CNc1nc(Nc2ccnc(C#N)c2)nc(-c2cccc(C(F)(F)F)n2)n1               pIC50  6.00 to 7.00

Consider now this further compound.
Documented pIC50 of `FC1(F)CC[C@@H](Nc2nc(Nc3ccnc(C(F)(F)F)c3)nc(-c3ccnc(C(F)(F)F)n3)n2)C1` : > 7.30

* * *

Each entry below carries its recorded pIC50.
System: HT1080 cells
protocol.text: Cellular assay for IDH1m R132C inhibitors, 2-HG by LC-MS in HT1080 cells
Type: cell-based
applied.conditions: Homo sapiens, HT-1080
pIC50: −log10 of the molar value.

> print(dat)
                                   molecule  measured.attribute        result
1  CC(C)C(C)Nc1nc(NC(C)C(C)C)nc(-c2cccc(C(F)(F)F)n2)n1 (centres unmarked)               pIC50        > 7.30
2  FC1(F)CCC(Nc2nc(Nc3ccnc(C(F)(F)F)c3)nc(-c3cccc(C(F)(F)F)n3)n2)CC1               pIC50  6.00 to 7.00

# molecule `FC1(F)CC(Nc2nc(Nc3ccnc(C(F)(F)F)c3)nc(-n3ccc(C(F)(F)F)n3)n2)C1` ; its pIC50 = 6.00 to 7.00

Data point: N#Cc1cc(F)cc(Nc2nc(NC3CCC(F)(F)C3)nc(-n3ccc(C(F)(F)F)n3)n2)c1 (centres unmarked) ; pIC50 = 6.00 to 7.00

The measured pIC50 associated with `CC(C)(O)CNc1nc(Nc2cc(F)cc(C#N)c2)nc(-c2cccc(C(F)(F)F)n2)n1` reads < 6.00

Just so you know, measured pIC50 for `Nc1ccc(F)c(-c2nc(Nc3cc(F)cc(F)c3)nc(NC3CCC(F)(F)CC3)n2)n1` came out at 6.00 to 7.00

Entry FC1(F)CCC(Nc2nc(Nc3cncc(C(F)(F)F)c3)nc(-c3cccc(C(F)(F)F)n3)n2)C1 (centres unmarked) ; pIC50 = 7.00 to 7.30

Value of pIC50 reported for the molecule `CC(C)(C)Nc1nc(Nc2cccc(C#N)c2)nc(-c2cccc(C(F)(F)F)n2)n1` is < 6.00

* * *

target.desc: IDH1 wt/IDH1 R132H heterodimer (Homo sapiens (Human), UniProt O75874, R132H)
protocol.text: In vitro assay for IDH1m R132H inhibitors, IDH1 wt/IDH1 R132H heterodimer, NADPH depletion (diaphorase/resazurin)
Assay type: biochemical
applied.conditions: IDH1 wt/R132H heterodimer, NADPH/NADP, not saturated; read-out: IDH1 wt/R132H NADPH/NADP IC50 not saturated
pIC50: −log10 of the molar value.
Parameter: pIC50. Scope: all listed entries.

> print(dat)
                                   compound  measured.attribute  result
1  FC1(F)CCC(Nc2nc(NC3CCC(F)(F)CC3)nc(-n3ccc(C(F)(F)F)n3)n2)CC1               pIC50  > 7.30
2  N#Cc1cc(Nc2nc(NC3CCC(F)(F)C3)nc(-c3cccc(C(F)(F)F)n3)n2)ccn1 (centres unmarked)               pIC50  > 7.30
3  C[C@@H](Nc1nc(Nc2ccnc(C#N)c2)nc(-n2ccc(C(F)(F)F)n2)n1)C(F)(F)F               pIC50  > 7.30

Briefly, pIC50 measured for `C[C@@H](Nc1nc(N[C@H](C)C2CC2)nc(-c2cc(F)ccc2F)n1)C1CC1` : 6.00 to 7.00

// sample `CC(C)(O)CNc1nc(Nc2cccc(Cl)c2)nc(-c2cccc(C(F)(F)F)n2)n1` , its pIC50 was 7.00 to 7.30

pIC50 recorded for this compound, CC(Nc1nc(Nc2ccnc(C(F)(F)F)c2)nc(-n2ccc(C(F)(F)F)n2)n1)C(F)(F)F (centres unmarked) , is > 7.30

Sure, the documented pIC50 for `FC1(F)CC(Nc2nc(NC3CC(F)(F)C3)nc(-c3nccc(C(F)(F)F)n3)n2)C1` is 6.00 to 7.00

Per the record, FC1(F)CCC(Nc2nc(NC3CCC(F)(F)C3)nc(-c3cccc(OC(F)(F)F)n3)n2)C1 (centres unmarked) has pIC50 of 7.00 to 7.30

* * *

The entries below come with measured pIC50 values attached.
Tested on: U87MG pLVX-IDH2 R140Q-neo cells
protocol.text: U87MG pLVX-IDH2 R140Q-neo cell based assay, 2-HG by LC-MS
applied.conditions: Homo sapiens, U-87 MG
pIC50: −log10 of the molar value.

Please review the entries below; each comes with its answer.
> print(dat)
                                   molecule        result
1  CC(C)(C)CNc1nc(NCC(C)(C)C)nc(-c2cccc(N)n2)n1  7.00 to 7.30
2  N#Cc1cc(F)cc(Nc2nc(NC3CCC(F)(F)C3)nc(-c3cccc(C(F)(F)F)n3)n2)c1 (centres unmarked)        > 7.30
3  C[C@H](Nc1nc(N[C@H](C)C(F)(F)F)nc(-c2cccc(Cl)n2)n1)C(F)(F)F        > 7.30
4  FC(F)c1cncc(-c2nc(NC3CC(F)(F)C3)nc(NC3CC(F)(F)C3)n2)n1        > 7.30
5  C[C@@H](Nc1nc(N[C@H](C)C2CC2)nc(-c2cccc(C(F)(F)F)n2)n1)C1CC1        > 7.30

Tested on U87MG pLVX-IDH2 R140Q-neo cells, the item CC(C)Nc1nc(NC2CCCOC2)nc(-c2ccccc2)n1 (centres unmarked) showed pIC50 equal to 6.00 to 7.00

Short answer on U87MG pLVX-IDH2 R140Q-neo cells for `CC[C@H](Nc1nc(N[C@@H](CC)C(F)(F)F)nc(-n2ccc(C(F)(F)F)n2)n1)C(F)(F)F` , pIC50: 7.00 to 7.30

Noted pIC50 for `N#Cc1cc(F)cc(Nc2nc(NCC3CC3)nc(-c3cccc(C(F)(F)F)n3)n2)c1` , tested on U87MG pLVX-IDH2 R140Q-neo cells: > 7.30
